Data provenance is patent EP2886531B1.

Would you kindly list piperides [%] for each of these molecules?
experiment: Prolonged DBU treatment of VKDNYI peptide resin (aspartimide formation); format: physicochemical; conditions: VKDNYI; DBU/piperidine/DMF (1:19:79), 225 minutes
State just the number; it will be interpreted in %.

Q: If you can, please state the reported piperides [%] value of CCC(CC)(CC)OC(=O)C[C@H](NC(=O)OCC1c2ccccc2-c2ccccc21)C(=O)O .
A: 37.3

Q: What do we get for CC(C)(C)OC(=O)C[C@H](NC(=O)OCC1c2ccccc2-c2ccccc21)C(=O)O [tBu, Fmoc-Asp(OtBu)-OH, reference compound] ?
A: 97.1

Q: What about this molecule? CCCC(CCC)(CCC)OC(=O)C[C@H](NC(=O)OCC1c2ccccc2-c2ccccc21)C(=O)O
A: 25.7

Q: Try this molecule too: CCCCC(CCCC)(CCCC)OC(=O)C[C@H](NC(=O)OCC1c2ccccc2-c2ccccc21)C(=O)O
A: 22.0

Q: What do you get for CCC(C)(CC)OC(=O)C[C@H](NC(=O)OCC1c2ccccc2-c2ccccc21)C(=O)O [Mpe, Fmoc-Asp(OMpe)-OH, reference compound] ?
A: 73.7
